Target: HLA-A*11:01
Assay: IEDB peptide-MHC binding, purified MHC/direct/fluorescence; filed as Kd, often an IC50 or EC50 that approximates it; bounds were set here for any values at or beyond the usual limits of such assays
Conditions: source organism: Yersinia pestis
Reported Property: pKd
Quick note: pKd values are minus log10 of concentrations in mol/L.

# input sequence: TVYPKTHYV ; wanted: its pKd
7.32

====

Biological target: HLA-C*03:03
Assay: IEDB peptide-MHC binding, purified MHC/direct/fluorescence; filed as Kd, often an IC50 or EC50 that approximates it; bounds were set here for any values at or beyond the usual limits of such assays
Conditions: source organism: Rickettsia bellii RML369-C
Reported Property: Kd

# input sequence: FAYKTGSSM ; wanted: its Kd
≤ 1 nM

====

Molecular target: HLA-A*02:01
Assay: IEDB peptide-MHC binding, purified MHC/competitive/radioactivity; filed as Kd, often an IC50 or EC50 that approximates it; bounds were set here for any values at or beyond the usual limits of such assays
Conditions: source organism: Dengue virus 1 Singapore/S275/1990
Quick reference for Kd among some sequences
Give just the number in nM; leave the unit off.

// solved cases for Kd follow
[[record]]
construct_sequence = "LLATSIFKL"
reported_property = "Kd"
value_observed = 5

[[record]]
construct_sequence = "LLMLLPTALA"
reported_property = "Kd"
value_observed = 128

[[record]]
construct_sequence = "LMLVAHYAI"
reported_property = "Kd"
value_observed = 6.46


Let us move to another entry and its Kd.
State its Kd on HLA-A*02:01: YLALMATFKM
12.8

====

Target: HLA-A*30:01
Test: IEDB peptide-MHC binding, purified MHC/competitive/radioactivity; filed as Kd, often an IC50 or EC50 that approximates it; bounds were set here for any values at or beyond the usual limits of such assays
Conditions: source organism: Vaccinia virus WR
pKd: −log10 of the molar value.
Decision: pKd >= 8 yields Yes, all other cases yield No.

Worked examples, 5 sequences total:
[[record]]
construct_sequence = "ATFTVNIFK"
answer_label = "Yes"

[[record]]
construct_sequence = "AVKDVTITK"
answer_label = "Yes"

[[record]]
construct_sequence = "KVYIGYCMA"
answer_label = "Yes"

[[record]]
construct_sequence = "HTHLSNQNL"
answer_label = "Yes"

[[record]]
construct_sequence = "RTRYDTFKV"
answer_label = "Yes"


Does the sequence NLLCHIYSL have recorded pKd that is 8 or more?
No

Does the sequence FIKNKIHLL have recorded pKd that is 8 or more?
No

Does the sequence KGFYASPSV have recorded pKd that is 8 or more?
Yes

Does the sequence RTKPASAPI have recorded pKd that is 8 or more?
Yes

Does the sequence RIRRFRRPM have recorded pKd that is 8 or more?
Yes

====

Target: HLA-B*07:02
Experiment: IEDB peptide-MHC binding, purified MHC/direct/fluorescence; filed as Kd, often an IC50 or EC50 that approximates it; bounds were set here for any values at or beyond the usual limits of such assays
Conditions: source organism: Homo sapiens
Reported Property: pKd
Quick note: pKd values are minus log10 of concentrations in mol/L.

State its pKd on HLA-B*07:02: LPHQPLATY
5.22

====

Molecular target: HLA-B*15:01
Assay: IEDB peptide-MHC binding, purified MHC/direct/fluorescence; filed as Kd, often an IC50 or EC50 that approximates it; bounds were set here for any values at or beyond the usual limits of such assays
Conditions: source organism: Marburg virus - Musoke, Kenya, 1980
Reported Property: Kd

# input sequence: THYSGNIVH ; wanted: its Kd
≥ 20 µM
